Tested on: Saccharomyces cerevisiae;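 further: PSI is a weighted mean of sequencing reads over stability bins, variants kept only with over 10 reads, mCherry proximal and sfGFP distal, peptide attached via GGGS linker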
test.name: protein stability index of tFT-peptide fusion (C-terminal peptide) (PSI (0-1 scale)); higher = more stable (slower turnover)
conditions: genetic background: wild type; temperature: 30 C
Rule: protein stability index under 0.7 gives -1, otherwise 1.

Query: Please check the record GCGAMGWAVPAA and state if its protein stability index is at or above 0.7.
Result: -1

Query: Given the entry FYAAILCLLFSC , answer whether its protein stability index meets or surpasses 0.7.
Result: -1

Query: API: above_or_equal(metric=protein stability index, cutoff=0.7) for item LVHVPVCFLSVL
Result: -1

Query: Identify whether the reported protein stability index of the following sequence is 0.7 or greater: VGRVGVRDGVVG
Result: -1

Query: Decide: protein stability index of RVVPTKTIAGSA >= 0.7?
Result: -1

Query: Evaluate CYSLLFVSVILF : protein stability index at minimum 0.7?
Result: -1

Query: Could you tell me if the measured protein stability index of GHRLSMCLGFGK reaches 0.7 or more?
Result: -1

Query: Is protein stability index at least 0.7? Consider PPARPDCGIRTP
Result: -1

Query: Would you say LLDRGLLSALLA shows protein stability index at minimum 0.7?
Result: -1

Query: Could you tell me if the measured protein stability index of EPESPVTARAKP reaches 0.7 or more?
Result: -1

Query: Answer whether protein stability index of AKKKHHKYRRNG is greater than or equal to 0.7.
Result: -1

Query: Form field: protein stability index at least 0.7? Entry: HIKSENKEKGKI
Result: -1

Query: # bool: protein stability index of PPRPPSPPPPPS >= 0.7
Result: 1

Query: Decide: is the reported value of protein stability index for IRPSGVVPPRAG equal to or greater than 0.7?
Result: -1

Query: Reported protein stability index reaches at least 0.7 for EGLDVRILIQVI ?
Result: -1

Query: Reported protein stability index at or above 0.7? PPLLPPLPFPPP
Result: 1

Query: Please check the record SPFPLSSLRPLP and state if its protein stability index is at or above 0.7.
Result: 1

Query: Answer whether protein stability index of PRTTHTPLLIAS is greater than or equal to 0.7.
Result: -1

Query: Exam item: decide whether the reported protein stability index for PPLPLPLPPPTP is at least 0.7.
Result: 1

Query: Is protein stability index at least 0.7? Consider YSNCPQPRVISD
Result: -1

Query: Hello, I need to know if TPCTFPPLIRSP has measured protein stability index not below 0.7. Thanks!
Result: -1

Query: protein stability index >= 0.7 for PSTILLRYRPSV ?
Result: 1

Query: Test whether the sequence FSRGRAVRVRRT records protein stability index of 0.7 or higher.
Result: 1

Query: Decide: is the reported value of protein stability index for STKQTTTTERAI equal to or greater than 0.7?
Result: -1

Query: Tell me whether protein stability index is at least 0.7 here: TGLRLFGVLSLI
Result: -1

Query: Given TPFLPLPSRPRR , state whether its protein stability index is at least 0.7.
Result: 1

Query: Could you tell me if the measured protein stability index of CRVVRGGEGLGG reaches 0.7 or more?
Result: -1

Query: Has APPPPQSRASSP a recorded protein stability index greater than or equal to 0.7?
Result: 1

Query: Check if protein stability index >= 0.7 (inclusive). Item: SPFCGVRFRFCY
Result: -1

Query: Does the sequence PSPSPPLAPPVT have recorded protein stability index that is 0.7 or more?
Result: -1

Query: Exam item: decide whether the reported protein stability index for SPPVPLPYLASP is at least 0.7.
Result: -1

Query: Does the sequence VKEKKKDEKRKR have recorded protein stability index that is 0.7 or more?
Result: 1

Query: Could you verify whether the entry LVFPRWACSLVF shows protein stability index of no less than 0.7?
Result: -1

Query: Does the sequence PSPAALLPPPPP have recorded protein stability index that is 0.7 or more?
Result: -1

Query: Is the recorded value of protein stability index equal to or greater than 0.7 for this sequence? KRLALVSCSICG
Result: -1

Query: Check this sequence for protein stability index at or above 0.7: HPPPSLAASPPP
Result: -1

Query: Given the entry PSRPPPARSSPP , answer whether its protein stability index meets or surpasses 0.7.
Result: -1

Query: protein stability index >= 0.7 for PLPPPSASPLPP ?
Result: -1

Query: Is protein stability index at least 0.7? Consider RIKQKEEKRNRY
Result: 1

Query: Is protein stability index at least 0.7? Consider SQIALIQYFHIL
Result: -1

Query: Confirm if protein stability index reported for the sequence RSNNKFAKPIQY is 0.7 or above.
Result: -1

Query: Is reported protein stability index greater than or equal to 0.7 here: GRKAEAEASLFS
Result: -1

Query: Hi, just wondering whether GSVCVGGFGFFG shows protein stability index of 0.7 or higher.
Result: -1

Query: Could you verify whether the entry SRSGASLRAARG shows protein stability index of no less than 0.7?
Result: 1

Query: Evaluate KIPEQRISKTKK : protein stability index at minimum 0.7?
Result: 1

Query: Quick check, protein stability index >= 0.7? CWGVGGRTVING
Result: -1

Query: # bool: protein stability index of CAGLIDLVGDVS >= 0.7
Result: -1

Query: # check: protein stability index of KRRKKKSKERER is greater than or equal to 0.7
Result: -1

Query: Hello, I need to know if VRCCFGGRGGIA has measured protein stability index not below 0.7. Thanks!
Result: -1

Query: Entry VPRGAALIFLCF : is its protein stability index no less than 0.7?
Result: -1

Query: Textbook exercise: given the entry PLFLLTFAITLV , state whether its protein stability index is greater than or equal to 0.7.
Result: -1

Query: Please tell me: is the sequence GWEYMDERVNQS at or over 0.7 in terms of protein stability index?
Result: 1

Query: Record MYSSIFTHVFGV ; criterion: protein stability index no lower than 0.7. Met?
Result: 1

Query: # bool: protein stability index of IPSRGVQIPSWV >= 0.7
Result: -1

Query: Check the entry FCAVRYLVEGRV : does protein stability index equal or exceed 0.7?
Result: -1

Query: Hi, just wondering whether VVGRVTGGGSDG shows protein stability index of 0.7 or higher.
Result: -1

Query: Kindly determine if protein stability index recorded for CLCITGIPVQGF is above or exactly 0.7.
Result: -1

Query: Would you say SPPPPASPPAPP shows protein stability index at minimum 0.7?
Result: -1

Query: Reported protein stability index at or above 0.7? HSNPPPRRHPTI
Result: 1

Query: Please tell me: is the sequence HRVVAATKSPSA at or over 0.7 in terms of protein stability index?
Result: 1

Query: Kindly determine if protein stability index recorded for SRPPLLLLSSGA is above or exactly 0.7.
Result: -1

Query: Kindly determine if protein stability index recorded for YCDPSLIWLYLM is above or exactly 0.7.
Result: -1
